Origin of measurements: ChEMBL document CHEMBL1136830

# system: Human immunodeficiency virus type 1 integrase (Human immunodeficiency virus 1, UniProt Q7ZJM1)
# Sequence (Q7ZJM1 whole entry): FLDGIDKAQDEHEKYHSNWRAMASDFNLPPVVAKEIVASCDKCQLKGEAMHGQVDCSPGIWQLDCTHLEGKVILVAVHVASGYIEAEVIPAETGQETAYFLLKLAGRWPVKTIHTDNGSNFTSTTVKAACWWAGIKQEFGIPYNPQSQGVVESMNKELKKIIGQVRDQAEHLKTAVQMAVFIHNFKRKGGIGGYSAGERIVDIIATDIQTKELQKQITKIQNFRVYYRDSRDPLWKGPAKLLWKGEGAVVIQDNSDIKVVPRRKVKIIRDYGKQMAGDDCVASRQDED
# protocol.notes: In vitro inhibitory activity against HIV-1 integrase enzyme 3'-end processing
Starred links: 1 amine or outer side, 2 acyl side, 3 side chain; linkers in the order of their positions; H or OH if unused. Positions of bridges follow the written chain, without caps; N, C: chain ends. Residues, ends and D or L forms follow the SMILES beside them. Chains are numbered I, II in the order given. CH2 = C([*:1])[*:2]
Measured IC50 by item

Look over these answered cases.
{"compound": "NCCCC[C@H](NC(=O)[C@H](CSCSC[C@H](NC(=O)[C@@H](N)Cc1c[nH]cn1)C(=O)N[C@@H](CCCCN)C(=O)N[C@@H](Cc1ccccc1)C(=O)N[C@@H](Cc1c[nH]c2ccccc12)C(=O)N[C@@H](Cc1c[nH]c2ccccc12)C(N)=O)NC(=O)[C@@H](N)Cc1c[nH]cn1)C(=O)N[C@@H](Cc1ccccc1)C(=O)N[C@@H](Cc1c[nH]c2ccccc12)C(=O)N[C@@H](Cc1c[nH]c2ccccc12)C(N)=O (I: H-HCKFWW-NH2 / II: H-HCKFWW-NH2; linker I:2-II:2 via CH2)", "measured.quantity": "IC50", "value.measured": "5.3 µM"}
{"compound": "NCCCC[C@H](NC(=O)[C@H](CSC[C@H](NC(=O)[C@@H](N)Cc1c[nH]cn1)C(=O)N[C@@H](CCCCN)C(=O)N[C@@H](Cc1ccccc1)C(=O)N[C@@H](Cc1c[nH]c2ccccc12)C(=O)N[C@@H](Cc1c[nH]c2ccccc12)C(N)=O)NC(=O)[C@@H](N)Cc1c[nH]cn1)C(=O)N[C@@H](Cc1ccccc1)C(=O)N[C@@H](Cc1c[nH]c2ccccc12)C(=O)N[C@@H](Cc1c[nH]c2ccccc12)C(N)=O", "measured.quantity": "IC50", "value.measured": "67 µM"}

With those in mind, consider the next compound.
Summary for this compound, NCCCC[C@H](NC(=O)[C@@H](CCSCC[C@@H](NC(=O)[C@@H](N)Cc1c[nH]cn1)C(=O)N[C@@H](CCCCN)C(=O)N[C@@H](Cc1ccccc1)C(=O)N[C@@H](Cc1c[nH]c2ccccc12)C(=O)N[C@@H](Cc1c[nH]c2ccccc12)C(N)=O)NC(=O)[C@@H](N)Cc1c[nH]cn1)C(=O)N[C@@H](Cc1ccccc1)C(=O)N[C@@H](Cc1c[nH]c2ccccc12)C(=O)N[C@@H](Cc1c[nH]c2ccccc12)C(N)=O : IC50 is 59 µM
